test system: MS2 coat protein; test: apparent KD of MS2 coat protein; designed switch direction (-1 OFF switch, 1 ON switch): -1; higher = weaker reporter binding; conditions: input ligand: none
Some sequences, each annotated with its measured apparent KD of MS2 coat protein.

{"sequence text": "AAGUUACAUGAGGAUCACCCAUGUGAGGAUAUGAGUCAGUCACGGUGACGUGGCUGACUCAGAAGGCACAAUGG [JL-ex1-4.41 salish99 mod] (Eterna round: R97, puzzle: Exclusion 1)", "assay value": "290 nM"}

Given the sequence UCUUUAGGUGUUAGGAUAUACCUGCGCAAAGUUAGGUAGAAGGGACAUGAGGAUCACCCAUGUGCGUCCACAAU [Eternabot (L1) Solution 29] (Eterna round: R97, puzzle: Brourd's mod of Exclusion 4) , what is its reported apparent KD of MS2 coat protein?
27.5 nM

Given the sequence UGAUCACAUGAGGAUCACCCAUGUCAGGAUAUCGUCACUGGAGCUGCGGCUCCAGUGACGAGAAGGGAUAUAAU [E1/5-A3] (Eterna round: R97, puzzle: Exclusion 1) , what is its reported apparent KD of MS2 coat protein?
104 nM

* * *

tested on: K4 kissing-loop RNA reporter; assay: apparent KD of K4 kissing-loop reporter; higher = weaker reporter binding; details: Eterna round: R107; input ligand: arginine 13.2 mM
Some sequences, each annotated with its measured apparent KD of K4 kissing-loop reporter.
The figure you give is taken to be in nM; do not add the unit.

{"sequence text": "UGGCGGACGAUCCGGAGUGAUGUUCCGGAUACCAGCAGAAGAGCCUGCCCUUGGCAGCCGUACGACGCUGGGAGAGUCCGGCGUC [Soteina]", "assay value": 90.3}
{"sequence text": "AAUGUACAAGUGAUGUUUGUACUUUCCGAAGGAGCGUCAAAUAAGACAGGUAGGUCGCGGAUACUCUAAAUAAUCAGGUCAUUAA [JR_ExcArginiA_Sub019]", "assay value": 88}
{"sequence text": "UGUCAUUGGUCUGAUACCAGGUUGAUCGGUAAACGAUCUCCUGGAGUGAUGUUCCAAAAUAUCCCUUGGCAGCAGACCGAUGACU [TheoBS 6 #SwitchBubble #StaticStem]", "assay value": 320}

Here is another sequence to look at.
Given the sequence GUAUCGCUAGGAGGAUAUUUCAAUUCGUCAAUAAAUGGUGAUACGGAGUGAUGUUCCGAUUUACGGAAAGAAGGCCUAGUGAUAC [FMN B 7] , what is its reported apparent KD of K4 kissing-loop reporter?
265

* * *

Some sequences, each annotated with its measured apparent KD of K4 kissing-loop reporter.
system: K4 kissing-loop RNA reporter; experiment: apparent KD of K4 kissing-loop reporter; higher = weaker reporter binding; conditions: Eterna round: R107; input ligand: arginine 13.2 mM
The figure you give is taken to be in µM; do not add the unit.

# example entries with known answers
{"sequence text": "UCGAUAGAGAGUGAUGUUCUCGUAUCAGAUACCAGUCACGCGAGUGACCCUUGGCAGCUGAUGUACAGCUGAGAGUAGUAUUCGA [Theo A Ex t8]", "apparent KD of K4 kissing-loop reporter, µM": 0.104}
{"sequence text": "GACAGCCGGUCGGCCGCCACUUGGAGUGAUGUUCCGCGCGGCGGGCGCCGGAGGGCGUUAAGCCCAAGGACCGGGACCGGUAACG [Celeso]", "apparent KD of K4 kissing-loop reporter, µM": 0.103}
{"sequence text": "GAUUUAGAGGCGGCCGCCACUAGUGAUGUUAGUGAUGUUUGAUACUGAAUAUAUCUGCGUUUAGAUAGGACCGGGCCAGAUGGUG [ddcmullin]", "apparent KD of K4 kissing-loop reporter, µM": 0.159}
{"sequence text": "GUGUAACGAGGAAACCUCGUUACACCCUCACGAGGACCGGUACGGCCGCCACUCGAGAGCUCGUGAGGAGUGAUGUUCCUCGUGA", "apparent KD of K4 kissing-loop reporter, µM": 0.335}
{"sequence text": "GGGAGUAGUGCGGCCGCCACUGAGAAAGAAGAAGAAUAUAGUGAUGUUAUAUAGGAAAGGAAGAAUAGGACCGGGCAUUAGAUUU [SSTRyptB.J]", "apparent KD of K4 kissing-loop reporter, µM": 0.173}

Given the sequence CUGACGAUGACACGGUGGCCGCUGGUCGUGCGAGGACCGGUACGGCCGCCACUCGCAUGAGUGAUGUUCAUGUGUCGUCGUCGUC [#08 K4 Tryptophan A Exclusion] , what is its reported apparent KD of K4 kissing-loop reporter?
0.101

Given the sequence UUAUAUAUAUCAGAUACCAGUAUAAUGGAAACAAAUUAUGUUAUGAGUGAUGUUCAUGUAUGCCCUUGGCAGCUGGUAUGGGUUU [KL-XTheo-B20] , what is its reported apparent KD of K4 kissing-loop reporter?
0.322

Given the sequence AGAACUGUCUGAGAUACCAGCCAGGAAGUGAUGUUUCCAGCUCCACGAAAGUGGAGCCAUGGCCCUUGGCAGCUCAGACAGUUCA [Omei KL Theo B SS A v5] , what is its reported apparent KD of K4 kissing-loop reporter?
0.141

* * *

Some sequences, each annotated with its measured apparent KD of K4 kissing-loop reporter.
test system: K4 kissing-loop RNA reporter; experiment: apparent KD of K4 kissing-loop reporter; higher = weaker reporter binding; conditions: Eterna round: R107; input ligand: none;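 note: bound reporter read as fluorescence of individual clusters on recovered sequencing chips by microscopy, with normalized cluster intensities fitted with a binding model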
The figure you give is taken to be in µM; do not add the unit.

# example entries with known answers
{"sequence text": "CGCUUGCACGGAAGGAGCGUCCAAGCGAGACACGAGUGAUGUUCGUGAUCGACGUAAACUGGACAGGUAGGUCGCCGUGCUUAAU [Eresti]", "display unit": "µM", "apparent KD of K4 kissing-loop reporter": 0.121}
{"sequence text": "UGUAUGUGAUUUGAUACCAGACCAGCUGGUGUUUCAAGAGUGAUGUUCUUGUAGGUUUGGGUCCCUUGGCAGCAAAUCGCAUACU [KL-SSTheoB15]", "display unit": "µM", "apparent KD of K4 kissing-loop reporter": 0.152}
{"sequence text": "GGCACGGUAACGCAACCGCCGUGCGCUUGGGAGGAUAUGUUUCGUGACAGAAGGCCCAGUGAUGUUGGGUCUGUUCAAAAGGACU [Ceenerus]", "display unit": "µM", "apparent KD of K4 kissing-loop reporter": 0.105}
{"sequence text": "GCGCGUCAUGUCAGCGGUGACUAUGUCGAUACCAGCAGGGAAACCUGCCCUUGGCAGCGACGCGCUGGAGUGAUGUUCCGACGGC [#2 Exclusion - Theophylline A Attempt #8 (HarryS)]", "display unit": "µM", "apparent KD of K4 kissing-loop reporter": 0.154}
{"sequence text": "UGUACCGAGUCAGGAUAUCAUAAUAAAUCCAGUGAUGUUGGAAUAACCAGUACAAAGUACUGGCCUUGAGAAGGGACUUGGUACU [FmnBS 3 #SwitchBubble #StaticStem]", "display unit": "µM", "apparent KD of K4 kissing-loop reporter": 0.163}
{"sequence text": "AUUAUAUAGGCGGCCGCCACUAGUGAUGUUAGUGAUGUCAUAAUAUAAUGAUAAAUUAUAUUGCGUAGGACCGGGCCUAAAUAUU [#15 K4 Tryptophan B Exclusion]", "display unit": "µM", "apparent KD of K4 kissing-loop reporter": 0.0863}
{"sequence text": "GAUCAUAGCACGGCCGCCACUGAUAUGCCGUGCUAUACGAGUGAUGUUCGUAAUUAUACGGGUAUCAGGACCGGGUGCAACGGUA [Tryp B SS t2]", "display unit": "µM", "apparent KD of K4 kissing-loop reporter": 0.113}

Here is another sequence to look at.
Given the sequence AUUUAAUUAACUGAUACCAGACUUUAUGUAUUUAUUAAAACUAGUGAUGUUAGUUUAUCUGUCCCUUGGCAGCAGUUUCUACUUA [JR_Nu_ExcTheophyB_Sub021] , what is its reported apparent KD of K4 kissing-loop reporter?
0.105

* * *

tested on: MS2 coat protein; assay: apparent KD of MS2 coat protein; designed switch direction (-1 OFF switch, 1 ON switch): -1; higher = weaker reporter binding; conditions: Eterna round: R98; input ligand: none
Some sequences, each annotated with its measured apparent KD of MS2 coat protein.
The figure you give is taken to be in nM; do not add the unit.

{"sequence text": "UGUUGUUACGCAGGAUAUUGCCAACAGGCGGUAGGAUAUCCGAAAGGAGAAGGACCGCCAACAGGCGAGAAGGGCGGGUUAACA [pwkr exNG2 2xF7 2FMN.10.1]", "study target": "MS2 coat protein", "display unit": "nM", "apparent KD of MS2 coat protein": 35.2}
{"sequence text": "AAAAUAAAGGCAGGAUAUACAUGAAUAAAUAAUAUAAUAUAUAAUAAAACAUGAGGAUCACCCAUGUAGAAGGGCCAAAAUAAA [LRO024_Exclusion NG 2]", "study target": "MS2 coat protein", "display unit": "nM", "apparent KD of MS2 coat protein": 72.3}
{"sequence text": "AAUAUAAGAGCUGGAAAUAAACUCACAUGAGGAUCACCCAUGUAGGAUAUCAGCACGAUAAGUGCUGAGAAGGACAUCCAGCUC [Denovo 56]", "study target": "MS2 coat protein", "display unit": "nM", "apparent KD of MS2 coat protein": 16.4}
{"sequence text": "AAUAUGAGCUGGAAUAUAAAACUCACAUGAGGAUCACCCAUGUAGGAUAUCAGCACGAUAAGUGCUGAGAAGGACAACCAGCUC [Denovo 31]", "study target": "MS2 coat protein", "display unit": "nM", "apparent KD of MS2 coat protein": 16.8}
{"sequence text": "UCAUACAUGAGGAUCACCCAUGACAUGAGGAUCACCCAUGUGCAGGAUAUACGUGAUAUAAUAUAGUAGAAGGGCAGACCAUAA [LRO005_Exclusion NG 3]", "study target": "MS2 coat protein", "display unit": "nM", "apparent KD of MS2 coat protein": 40.6}

Here is another sequence to look at.
Identify the measured apparent KD of MS2 coat protein of GCACUGGAUGUAGGAUAUCAGGACGAUAAGUCCUGAGAAGGACAUGAGGAUCACCCAUGUGCCAAAACCAGUGCAUAUAAUAUA [Denovo Exng1 33] for MS2 coat protein.
12.5

Measured values drawn from the supplement of paper PMC9170038 for this set.
